For each record, write down the corresponding growth.
System: NCI/ADR-RES ovarian
Experiment: NCI-60 one-dose screen, 48 h (100 = growth as untreated, 0 = no growth, -100 = all killed)
Conditions: 10 µM
Experimental: Growth inhibition of the NCI/ADR-RES human […] tumor cell line is measured as a screen for anti-cancer activity. Cells are grown in 96 well plates and exposed to the test compound for 48 hours. Compounds are tested at a single concentration, which is 10^-5 M for most compounds. The reported endpoint is percent growth (GI% or GIPRCNT), where numbers from 0 - 100% represent growth inhibition, and numbers from -100% - 0 represent cell death. For example, a value of 40 represents 60% growth inhibition. […]
About 83,000 compounds went through this panel and 20% of them were active in at least one assay; those are over-represented in the sample as a whole.
Numbers only, in %.

Kindly give each listed record's growth.
1. CNS(=O)(=O)Oc1ccc(-c2sc3cc(OS(=O)(=O)NC)ccc3c2C(=O)c2ccc(OCCN3CCCCC3)cc2)cc1
2. CC1/C=C/C=C/C=C/C=C/C=C/C=C/C=C/C(O[C@@H]2O[C@H](C)[C@H](O)[C@@H](O)[C@@H]2N)CC(O)C(C(=O)O)C(O)CC(=O)CC(O)CC(O)CC(O)CC(=O)CCCC(=O)CC(=O)OC1C(C)CC(C)C(O)CC(=O)c1ccc(N)cc1 (stereo not given in full)
3. COc1ccc(-c2nn(-c3cccc(Cl)c3)cc2-c2cc(-c3ccccc3)nc(N)n2)cc1

1: 71.4; 2: -99.6; 3: 53.3

Field: growth. Fill in for each record below.
1. Cc1c2c[n+](C(C)C)ccc2c(C)c2c1[nH]c1ccccc12
2. Cc1ccc(-n2c(C)nn3c(=O)c4c5c(sc4nc23)CN(C)CC5)cc1
3. Nc1ccccc1NC(=O)c1ccc(CCCC(=O)Nc2ccc(C3CC3N)cc2)cc1 (stereo not given)
4. COc1ccc2nc(-c3ccc(Cl)cc3)cc(-c3nnc(SC/C(=N\O)c4ccccc4)n3-c3ccccc3)c2c1
5. COc1ccc(/C(C#N)=C/c2cccc(OC)c2OC)cc1
6. COc1cccc(C2C(C#N)=C(N)Oc3cc(N)ccc32)c1 (stereo not given)

1: 97.9; 2: 101; 3: 98.6; 4: 88.2; 5: 53.3; 6: -7.69

So what does the record say about growth for NS(=O)(=O)c1ccc(Br)cc1 ?
97.7

---

Test system: MDA-MB-231 breast
Experiment: NCI-60 one-dose screen, 48 h (100 = growth as untreated, 0 = no growth, -100 = all killed)
Conditions: 10 µM
Procedure: Cells are grown in 96 well plates and exposed to the test compound for 48 hours. Compounds are tested at a single concentration, which is 10^-5 M for most compounds. The reported endpoint is percent growth (GI% or GIPRCNT), where numbers from 0 - 100% represent growth inhibition, and numbers from -100% - 0 represent cell death. For example, a value of 40 represents 60% growth inhibition. A value of 0 means no net growth occurred over the course of the experiment. […]
The panel holds about 83,000 compounds, 20% with a hit somewhere; the sample as a whole holds those more often.
Label y when growth is at or above 80%; otherwise label n.

Use these answered entries as a reference point.
• COc1ccc(Nc2cnc3cc(NS(=O)(=O)c4ccc(C)cc4)ccc3n2)cc1 = n
• COC(=O)c1c[nH]c2cc(OC(C)C)c(OC(C)C)cc2c1=O = y
• CCOC(=O)c1sc2ncnc(Nc3ccc(NC(=O)Nc4ccc(Cl)cc4)cc3)c2c1C = n

Tell me whether growth is at least 80% here: O=C(/C=C/C=C/c1c(C2CC2)nc2ccccc2c1-c1ccc(F)cc1)c1cccs1
n

Threshold query (growth >= 80%) on CNC(=O)c1cc(Oc2ccc3c(c2)sc2nc(-c4ccc(NC(=O)Nc5ccc(Cl)c(C(F)(F)F)c5)cc4)cn23)ccn1
n

---

tested on: U251 CNS; test: NCI-60 one-dose screen, 48 h (100 = growth as untreated, 0 = no growth, -100 = all killed); conditions: 10 µM
The panel holds about 83,000 compounds, 20% with a hit somewhere; the sample as a whole holds those more often.
parameter: growth (%)
Give bare numbers, in %.

Consider the following illustrative entries.
• Cc1c2c(nn1C(=O)c1nn(-c3ccc(Cl)cc3)cc1O)-c1ccccc1CC2 = 22.3
• COc1nc2c(c(=O)n1C)CN(c1ccccc1)C(=O)C(C)N2 (stereo not given) = 99
• Nc1ccc(-c2cccs2)cc1NC(=O)c1ccc(CCCC(=O)Nc2ccc(C3CC3N)cc2)cc1 (stereo not given) = 7.02
• CC1C(=NC(=O)c2cnccn2)C(C)C(c2ccc(Cl)cc2)NC1c1ccncc1 (stereo not given) = 76.4

// switching to the query compound
Given the entry C[n+]1c2ccccc2nc2ccccc21 , report its measured growth.
4.11

---

tested on: KM12 colon; experiment: NCI-60 one-dose screen, 48 h; details: 10 µM
The panel holds about 83,000 compounds, 20% with a hit somewhere; the sample as a whole holds those more often. Calls of active or inactive are those of the source. How the source made its calls: active means growth percent below 10; inactive means the rest.
Log the outcome using a class from label 1 (active), label 0 (inactive)

Reference set (3 entries):
* C/C=C/C1=CN2C(=O)c3cc(OC4OC(C)C(NC)C(C)(O)C4O)c(C)c(O)c3N=C[C@@H]2C1 (some centres undefined) | label 1
* CC[C@@H](C(=O)[C@H](C)[C@H](O)[C@@H](C)[C@H]1O[C@H]([C@@H](CC)C(=O)N(CC)CC)CC[C@H]1C)C1O[C@]2(C=C[C@@H](O)[C@]3(CC[C@@](C)([C@H]4CC[C@](O)(CC)[C@H](C)O4)O3)O2)[C@H](C)C[C@@H]1C (some centres undefined) | label 0
* O=[N+]([O-])c1cc(Cl)cc(Cl)c1O | label 0

Moving on to another molecule below.
Which outcome was entered for the molecule O=C(CCn1cnc2c(cc(-c3ccccc3)n2-c2ccccc2)c1=O)Nc1ccc(F)cc1 in this test?
label 0

---

system: A549/ATCC NSCLC; assay: NCI-60 one-dose screen, 48 h (100 = growth as untreated, 0 = no growth, -100 = all killed); conditions: 10 µM
This is part of a sample that, as a whole, favours compounds with a hit. Of some 83,000 tested, about 20% had one in any assay.
For each entry below, report its growth value.
Numbers only, in %.

Examples from the recorded data:
• C#C[C@]1(O)CCC2C3CCc4cc(OC5CCCC5)ccc4C3CC[C@@]21C (some centres undefined) = 65.9
• O=S(=O)(NCCCNc1nccc(-c2cn(-c3ccccc3)nc2-c2ccc(Cl)c(O)c2)n1)c1ccccc1 = 37.3
• Cc1ccc(/C=C/C(=O)C(=O)/C=C/c2ccc(C)cc2)cc1 = 86.2
• CCN1CC(CCN2CCOCC2)C(C(c2ccccc2)c2ccccc2)C1=O (centres undefined) = 101
• CN1C(=O)C2(Nc3cc(Cl)ccc3S2)c2cc(Cl)ccc21 (centres undefined) = 97.3

// batch mode: one growth value per listed entry
1. CC[C@@H](C(=O)[C@@H](C)[C@@H](O)[C@H](C)[C@@H]1O[C@@H]([C@@H](CC)C(=O)O)CC[C@@H]1C)C1O[C@]2(C=CC(=O)[C@]3(CC[C@@](C)([C@H]4CC[C@](O)(CC)[C@H](C)O4)O3)O2)[C@H](C)C[C@@H]1C (some centres undefined)
2. CNS(=O)(=O)Oc1ccc(-c2ccc3occc3c2)cc1
3. CN(C)CCC1(c2ccccc2)CCN(C)C1=O (centres undefined)
4. CC[C@@H](C(=O)[C@@H](C)[C@@H](O)[C@H](C)[C@@H]1O[C@@H]([C@@H](CC)C(=O)N(CC)CC)CC[C@@H]1C)C1O[C@]2(C=CC(=O)[C@]3(CC[C@@](C)([C@H]4CC[C@](O)(CC)[C@H](C)O4)O3)O2)[C@H](C)C[C@@H]1C (some centres undefined)

1: 28.3; 2: 93.3; 3: 105; 4: 28.3

---

Tested on: IGROV1 ovarian
Experiment: NCI-60 one-dose screen, 48 h (100 = growth as untreated, 0 = no growth, -100 = all killed)
Settings: 10 µM
Method: Growth inhibition of the IGROV1 human tumor cell line is measured as a screen for anti-cancer activity. Cells are grown in 96 well plates and exposed to the test compound for 48 hours. Compounds are tested at a single concentration, which is 10^-5 M for most compounds. The reported endpoint is percent growth (GI% or GIPRCNT), where numbers from 0 - 100% represent growth inhibition, and numbers from -100% - 0 represent cell death. For example, a value of 40 represents 60% growth inhibition. […]
The panel holds about 83,000 compounds, 20% with a hit somewhere; the sample as a whole holds those more often.
parameter: growth (%)
Numbers only, in %.

Worked examples follow.
- O=[N+]([O-])c1cccc(/C=N/NC(=S)NC23CC4CC(CC(C4)C2)C3)c1: 76.3
- COc1cc2c3c(n(C4CCN(C)CC4)c(=O)c2cc1OC)-c1cc2c(cc1C3=O)OCO2: 66.9
- O=C(N/N=C/c1cc([N+](=O)[O-])ccc1O)c1cccc2ccccc12: 39.8
- Cc1cc(C(C#N)c2ccc(Cl)cc2)c(Cl)cc1NC(=O)c1cc(I)cc(I)c1O (stereo not given): 51.7

List the reported growth of each compound below.
1. COc1ccc(-c2cc(-c3ccccc3)nc(SCCCCCCC(=O)NO)n2)cc1
2. COc1ccc(/C=C2\CCCC3=C2NC(N)=NC3c2ccc(OC)c(OC)c2)cc1OC (stereo not given)
3. COc1cc2cc(Oc3ccc(NC(=O)c4cc(C(F)(F)F)cc(C(F)(F)F)c4)cc3)c(C)nc2cc1OC
4. CN(C)CCCN1c2ccccc2CCc2ccc(Cl)cc21
5. NC1=NC(c2ccccc2)C2=C(N1)/C(=C/c1ccccc1)CCC2 (stereo not given)
6. CN1CCN(c2cc3c(cc2F)c(=O)c(C(=O)O)cn3-c2ccc(F)cc2)CC1
7. Cc1ccc(NCCNCC(C)(C)O)c2c(=O)c3ccc(Cl)cc3sc12

[32.2, 57.1, 43.9, 59.3, 100, 103, 29.8]
